# tested-target: human complement factor D (Homo sapiens, UniProt P00746)
# Construct: purchased R&D Systems 1824-SE
# Sequence (P00746 26-253): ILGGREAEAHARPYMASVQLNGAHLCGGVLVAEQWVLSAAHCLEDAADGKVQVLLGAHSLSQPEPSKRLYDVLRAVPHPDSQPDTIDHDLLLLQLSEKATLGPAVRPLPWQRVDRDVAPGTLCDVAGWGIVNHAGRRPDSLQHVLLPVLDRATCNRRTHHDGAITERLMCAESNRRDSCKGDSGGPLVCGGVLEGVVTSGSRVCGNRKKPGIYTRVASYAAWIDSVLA
# assay-explanation: In vitro enzyme inhibition (Z-Lys-SBzl/DTNB absorbance assay)
# Assay type: biochemical
# measurement-setup: Complement Factor D (R&D Systems), substrate Z-Lys-SBzl, A405 nm; read-out: CFD IC50
measure: IC50

Known IC50 results, listed for orientation:
compound: NC(=O)c1nn(CC(=O)N2[C@@H]3CC[C@@H](C3)[C@H]2C(=O)Nc2cncc(Cl)c2)c2ccccc12 [Example 58]
IC50: 1000 to 10000 nM
//
compound: NC(=O)c1nn(CC(=O)N2[C@@H]3CC[C@@H](C3)[C@H]2C(=O)Nc2cccc(Cl)n2)c2ccc(F)cc12 [Example 62]
IC50: 100 to 1000 nM
//
compound: CC(=O)c1nc(CC(=O)N2CC[C@H]2C(=O)NCc2cccc(Cl)c2F)n2ccccc12 [Example 192]
IC50: 1000 to 10000 nM
//
compound: NC(=O)c1nn(CC(=O)N2[C@H](C(=O)NCc3cccc(Cl)c3F)C[C@@H]3CCC[C@@H]32)c2ccc(F)cc12 [Example 166]
IC50: 100 to 1000 nM
//
compound: CC(=O)c1nn(CC(=O)N2[C@@H]3CC[C@@H](C3)[C@H]2C(=O)Nc2cccc(Cl)n2)c2ccc(C#N)cc12 [Example 92]
IC50: 100 to 1000 nM
//
compound: N#CC(NC(=O)[C@@H]1[C@H]2CC[C@H](C2)N1C(=O)Cn1nc(C(N)=O)c2ccccc21)c1cccc(Cl)c1F (stereo partly shown) [Example 141]
IC50: 100 to 1000 nM
//
compound: Cc1ccc2c(c1)c(C(N)=O)nn2CC(=O)N1[C@@H]2CC[C@@H](C2)[C@H]1C(=O)NCc1cccc(Cl)c1F [Example 60]
IC50: 100 to 1000 nM
//
compound: NC(=O)c1nn(CC(=O)N2CCOC[C@H]2C(=O)Nc2cccc(Cl)n2)c2ccccc12 [Example 22]
IC50: 1000 to 10000 nM

Shift focus to the following entry.
Prompt: Dear colleague, please send me the reported IC50 for NC(=O)c1nn(CC(=O)N2[C@@H]3CC[C@@H](C3)[C@H]2C(=O)NCc2cccc(Cl)c2F)c2ccncc12 [Example 98] when you can.
Response: 1000 to 10000 nM

Reference source: patent US20190127366A1
